Exercise: state measured EC50 for each of the binders provided.
Biological target: T1, EGF32 NRR (cyno) (cynomolgus monkey)
T1 construct: recombinant, C-terminal six histidine tag
Test: ELISA: IgG titrated on directly coated recombinant antigen
Give bare numbers, in nM.

20337 (antibody, human IgG1, kappa, V domains shown) VH: QVQLVESGGGLVKPGGSLRLSCAASGFTFSTYVMHWVRQAPGKGLEWVGRIRANAYGGAADYAAPVKGRFTISRDDSKNTLYLQMNSLKTEDTAVYYCARAEARYRDVWGQGTLVTVSS VL: DIQMTQSPSSLSASVGDRVTITCRASQSISSHLNWYQQKPGKAPKLLIYAASNLQSGVPSRFSGSGSGTDFTLTISSLQPEDFATYYCQQDYHTPFTFGQGTKVEIKR: 0.6
12215 (antibody, human IgG1, kappa, V domains shown, also called MOR 12215) VH: QVQLVESGGGLVKPGGSLRLSCAASGFTFSTYVMHWVRQAPGKGLEWVGRIRSNTYGGITDYAAPVKGRFTISRDDSKNTLYLQMNSLKTEDTAVYYCARAEARYRDVWGQGTLVTVSS VL: DIQMTQSPSSLSASVGDRVTITCRASQSISSHLNWYQQKPGKAPKLLIYAASNLQSGVPSRFSGSGSGTDFTLTISSLQPEDFATYYCQQDYHTPFTFGQGTKVEIKR: 0.6

Kindly review the next binder as well.
In plain terms, 20345 (antibody, human IgG1, kappa, V domains shown) VH: QVQLVQSGAEVKKPGSSVKVSCKASGGTFSSYTISWVRQAPGQGLEWMGWIKPKLGMAHYAQKFQGRVTITADESTSTAYMELSSLRSEDTAVYYCARGSFWFGYWGQGTLVTVSS VL: DIQMTQSPSSLSASVGDRVTITCRASQGINNYLNWYQQKPGKAPKLLIYDASKLQSGVPSRFSGSGSGTDFTLTISSLQPEDFATYYCQQYLQYPMTFGQGTKVEIKR has a documented EC50 of 0.6
